Numbers sourced from patent US12091409B2.

Entries and their measured EC50 follow.
# Tested on: NQO1 specific enzyme activity in BEAS-2B cells (marker for NRF2 activation)
# assay_overview: BEAS-2B NQO1 MTT Assay
# Assay type: cell-based
# experimental_setup: Homo sapiens, BEAS-2B, 48 h, NQO1 specific activity induction, 48 hours with compound
# Description: NAD(P)H:quinone oxidoreductase 1 (NQO1), also called DT diaphorase, is a homodimeric FAD-containing enzyme that catalyzes obligatory NAD(P)H-dependent two-electron reductions of quinones and protects cells against the toxic and neoplastic effects of free radicals and reactive oxygen species arising from one-electron reductions. […] On day one, frozen BEAS-2B cells (ATCC) were thawed in a water bath, counted, and re-suspended at a concentration of 250,000 cells/mL. […]
value_type: EC50

[[record]]
molecule = "COC(=O)C(C)(C)C(OCc1cn(Cc2cccc(-c3ccc(C(=O)O)cn3)c2)nn1)c1ccc(C)c(CN2C[C@@H](C)Oc3ccccc3S2(=O)=O)c1 (stereo partly drawn)"
reported_measurement = "1000 to 10000 nM"

[[record]]
molecule = "Cc1ccc(C(OCc2cn(Cc3cccc(Cn4cc(CC(=O)O)nn4)c3)nn2)C(C)(C)C(=O)O)cc1CN1C[C@@H](C)Oc2ccccc2S1(=O)=O (stereo partly drawn)"
reported_measurement = "100 to 1000 nM"

[[record]]
molecule = "CCn1cc(COC(c2ccc(C)c(CN(C3CCCCC3)S(=O)(=O)c3ccc(OC)cc3)c2)C(C)(C)C(=O)O)nn1 (stereo not drawn)"
reported_measurement = "100 to 1000 nM"


###

This section presents compounds with their documented EC50 values.
# System: NQO1 specific enzyme activity in BEAS-2B cells (marker for NRF2 activation)
# assay_overview: BEAS-2B NQO1 MTT Assay
# Type: cell-based
# experimental_setup: Homo sapiens, BEAS-2B, 48 h, NQO1 specific activity induction, 48 hours with compound
value_type: EC50

[[record]]
compound = "Cc1cc(Cn2cc(CO)nn2)cc(Cn2cc(COC(c3ccc(C)c(CN4C[C@@H](C)Oc5ccccc5S4(=O)=O)c3)C(C)(C)C(=O)O)nn2)c1 (stereo partly shown)"
reported_measurement = "10 to 100 nM"

[[record]]
compound = "CCn1cc(CO[C@@H](c2ccc(C)c(CN3CC(C)Cc4ccncc4S3(=O)=O)c2)C(C)(C)C(=O)O)nn1 (stereo in doubt)"
reported_measurement = "10 to 100 nM"

[[record]]
compound = "CCCn1cc(CO[C@H](c2ccc(C)c(CN3C[C@@H](C)Cc4ccccc4S3(=O)=O)c2)C(C)(C)C(=O)O)nn1"
reported_measurement = "< 1 nM"

[[record]]
compound = "CC[C@@H]1CN(Cc2cc(C(OCc3cn(Cc4cccc(Cn5cc(CO)nn5)c4)nn3)C(C)(C)C(=O)O)ccc2C)S(=O)(=O)c2ccccc2O1 (stereo partly shown)"
reported_measurement = "10 to 100 nM"

[[record]]
compound = "Cc1ccc(C(OCc2cn(Cc3cccc(Cn4cc(C(C)(C)O)nn4)c3)nn2)C(C)(C)C(=O)O)cc1CN1C[C@@H](C)Oc2ccccc2S1(=O)=O (stereo partly shown)"
reported_measurement = "10 to 100 nM"

[[record]]
compound = "CCCn1cc(CO[C@H](c2ccc(C)c(CN3CC(C)(C)Oc4ccccc4S3(=O)=O)c2)C(C)(C)C(=O)O)nn1"
reported_measurement = "1 to 10 nM"

[[record]]
compound = "Cc1ccc(C(OCc2cn(CC3CCN(C(=O)OC(C)(C)C)CC3)nn2)C(C)(C)C(=O)O)cc1CN1C[C@@H](C)Oc2ccccc2S1(=O)=O (stereo partly shown)"
reported_measurement = "1 to 10 nM"

[[record]]
compound = "CC[C@@H]1CN(Cc2cc([C@H](OCc3cn(CCOCCOC)nn3)C(C)(C)C(=O)O)ccc2C)S(=O)(=O)c2ccccc2O1"
reported_measurement = "< 1 nM"

[[record]]
compound = "CC[C@@H]1CN(Cc2cc([C@H](OCc3cn(CC)nn3)C(C)(C)C(=O)O)ccc2C)Cc2ncccc2O1"
reported_measurement = "100 to 1000 nM"

[[record]]
compound = "Cc1ccc(C(OCc2c[nH]nn2)C(C)(C)C(=O)O)cc1CN1C[C@@H](C)Oc2ccccc2S1(=O)=O (stereo partly shown)"
reported_measurement = "10 to 100 nM"

[[record]]
compound = "CCn1cc(CO[C@@H](c2ccc(C)c(CN3C[C@@H](C)Cc4ccccc4S3(=O)=O)c2)C(C)(C)C(=O)O)nn1"
reported_measurement = "1 to 10 nM"

[[record]]
compound = "CCn1cc(COC(c2ccc(C)c(CN3C[C@@H](C)Oc4ccccc4S3(=O)=O)c2)C(C)(C)C(=O)O)nn1 (stereo partly shown)"
reported_measurement = "1 to 10 nM"

[[record]]
compound = "CC[C@H]1Cc2cccnc2CN(Cc2cc([C@@H](OCc3cn(CC)nn3)C(C)(C)C(=O)O)ccc2C)C1"
reported_measurement = "1 to 10 nM"

